Reference for the values: paper PMC2232892

- SYSTEM_UNDER_TEST: Shaker B, ShB Δ6-46 (Drosophila melanogaster, UniProt P08510, DEL6-46)
- Type: cell-based
- MEASUREMENT_SETUP: read-out: apparent Kd for external TEA block; 115 mM internal Na+ (20 mM K+)
pKd: −log10 of the molar value.

{"columns": ["SMILES_CODE", "pKd"],
 "data": [
  ["CC[N+](CC)(CC)CC", 2.12]
]}
